Attribute: TD50 at 6 h
Experiment: in vivo
Conditions: rat, po
Readout label: TD50 at 6 h (mg/kg)

Compound: COc1ccc2c(c1)c(CC(=O)OCCOC(=O)C=C(C)CCC=C(C)C)c(C)n2C(=O)c1ccc(Cl)cc1
Result comparator: >
Assay result: 20
//
Compound: COc1ccc2c(c1)c(CC(=O)OCCOC(C)=O)c(C)n2C(=O)c1ccc(Cl)cc1
Result comparator: =
Assay result: 15
//
Compound: COc1ccc2c(c1)c(CC(=O)OCOC(=O)C=C(C)C)c(C)n2C(=O)c1ccc(Cl)cc1
Result comparator: =
Assay result: 20
//
Compound: COc1ccc2c(c1)c(CC(=O)OC(C)OC(C)=O)c(C)n2C(=O)c1ccc(Cl)cc1 (stereo not shown)
Result comparator: =
Assay result: 20

====

System: ultraviolet erythema
Experiment: inhibition action for ultraviolet erythema
Assay type: in vivo, male Hartley guinea pigs
Design: scale not given here
Details: 10 mg/kg orally, 3 hs after irradiation, guinea pigs
Method: With respect to Compounds 1 to 3, 15 and 21 which are especially useful as an anti-inflammatory drug, IM and DF, inhibition action for ultraviolet erythema was investigated according to the method of Adames et al [cf. […] The reaction of the ultraviolet erythema was evaluated at 2 hrs, 3 hrs and 5 hrs after irradiation according to the method of Winder et al [cf. […]
Readout label: 3 hs after the irradiation, Average ± standard error

Compound: CC=CC=CC(=O)OC(C)OC(=O)Cc1ccccc1Nc1c(Cl)cccc1Cl (stereo not drawn)
Assay result: 2.50

Compound: COc1ccc2c(c1)c(CC(=O)O)c(C)n2C(=O)c1ccc(Cl)cc1 [IM, indomethacin, reference compound]
Assay result: 2.83

Compound: CC=CC=CC(=O)OCOC(=O)Cc1ccccc1Nc1c(Cl)cccc1Cl
Assay result: 2.3

====

Assay: in vivo
Conditions: rat, po
The molecules listed here are annotated with their TD50 at 6 h.

Molecule: C/C=C/C(=O)OC(C)OC(=O)Cc1ccccc1Nc1c(Cl)cccc1Cl (stereo not drawn)
Units label: mg/kg
Result comparator: =
TD50 at 6 h: 30
--
Molecule: CC=CC=CC(=O)OC(C)OC(=O)Cc1ccccc1Nc1c(Cl)cccc1Cl (stereo not drawn)
Units label: mg/kg
Result comparator: >
TD50 at 6 h: 80
--
Molecule: C/C=C/C(=O)OCCOC(=O)Cc1c(C)n(C(=O)c2ccc(Cl)cc2)c2ccc(OC)cc12
Units label: mg/kg
Result comparator: =
TD50 at 6 h: 40

====

2 hs after the irradiation, Average ± standard error for assorted compounds
Test system: ultraviolet erythema
Assay: inhibition action for ultraviolet erythema
Assay type: in vivo, male Hartley guinea pigs
Parameters: scale not given here
Details: 10 mg/kg orally, 2 hs after irradiation, guinea pigs
Readout label: 2 hs after the irradiation, Average ± standard error

Compound: COc1ccc2c(c1)c(CC(=O)OCCOC(C)=O)c(C)n2C(=O)c1ccc(Cl)cc1 [Compound 3]
Tested system: ultraviolet erythema
Assay result: 0.67
//
Compound: C/C=C/C(=O)OCOC(=O)Cc1c(C)n(C(=O)c2ccc(Cl)cc2)c2ccc(OC)cc12 [Compound 1]
Tested system: ultraviolet erythema
Assay result: 1.17
//
Compound: O=C(O)Cc1ccccc1Nc1c(Cl)cccc1Cl [DF, diclofenac, reference compound]
Tested system: ultraviolet erythema
Assay result: 1.17
//
Compound: CC=CC=CC(=O)OC(C)OC(=O)Cc1ccccc1Nc1c(Cl)cccc1Cl (stereo not shown) [Compound 21]
Tested system: ultraviolet erythema
Assay result: 1.50
